# Tested on: total β-catenin in SW480 colorectal cells
# EXPERIMENT_SUMMARY: cells
# Assay type: cell-based
# DETAILS: Homo sapiens; SW480 cells, 40 to 48 hours, top concentration 10 μM; read-out: SW480-Total β-Catenin IC50 IP
MEASUREMENT_KIND: pIC50
The scale used: pIC50 is minus the common logarithm of the concentration in molar units.

Use these answered entries as a reference point.
Give the reported value of pIC50 for this record: "CC1(C)OC(=O)N([C@H]2CC[C@H](n3c(=O)[nH]c4cc(C#N)c(F)cc43)CC2)[C@H]1c1ccccc1"
7.17

Identify the reported pIC50 for the following entry. CC1(c2ccccc2)CN([C@H]2CC[C@H](n3c(=O)[nH]c4ccccc43)CC2)C(=O)O1 (stereo partly shown)
6.08

For the compound "CC1(C)OC(=O)N([C@H]2CC[C@H](n3c(=O)[nH]c4ncccc43)CC2)[C@H]1c1ccccc1" , give its reported pIC50.
5.95

Determine from records and report pIC50 for "CC1(C)OC(=O)N(C2CCN(c3cnc4ccn(-c5ncccn5)c4c3)CC2)[C@H]1c1ccccc1"
5.74

Others:
Let me know recorded pIC50 for "CC1(C)OC(=O)N(c2ccc(-n3c(=O)[nH]c4ccccc43)cc2)[C@H]1c1ccccc1" , thanks.
5.06

Quickly give me recorded pIC50 for CC1(c2ccccc2)CN([C@H]2CC[C@H](n3c(=O)[nH]c4cnccc43)CC2)C(=O)O1 (stereo partly shown)
5.46

====

# Tested on: total β-catenin in SW480 colorectal cells
# EXPERIMENT_SUMMARY: cells
# Type: cell-based
# DETAILS: Homo sapiens; SW480 cells, 40 to 48 hours, top concentration 10 μM; read-out: SW480-Total β-Catenin IC50 IP
MEASUREMENT_KIND: pIC50
Scale: pIC50 equals -log10([C]), with [C] in mol/L.

Return reported pIC50. Input compound: CC1(C)OC(=O)N(c2ccc(-c3cnc(N)c(-c4cnnc(Cl)c4)c3)cc2)[C@H]1c1ccccc1 (single isomer, unassigned)
6.68

---
Please give the documented pIC50 of CC1(C)OC(=O)N([C@@H]2CC=C(c3cnc4ccn(-c5ncccn5)c4c3)CC2)[C@H]1c1ccccc1 (mixture of isomers)
5.95

====

# MEASURED_TARGET: 6×HIS-tankyrase 1 (1091-1325) (Homo sapiens (Human), UniProt O95271)
# Sequence (O95271 1091-1325): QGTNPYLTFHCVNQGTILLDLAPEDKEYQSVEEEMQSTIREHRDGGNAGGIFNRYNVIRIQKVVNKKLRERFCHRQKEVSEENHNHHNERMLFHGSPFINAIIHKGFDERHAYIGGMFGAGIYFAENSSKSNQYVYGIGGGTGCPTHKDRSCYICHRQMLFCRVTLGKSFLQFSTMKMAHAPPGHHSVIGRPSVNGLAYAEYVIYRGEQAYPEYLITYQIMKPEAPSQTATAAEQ
# EXPERIMENT_SUMMARY: biochemical
# Type: biochemical
# DETAILS: […] enzyme, 400 nM NAD, 60 minutes at room temperature; read-out: TNKS1 IP IC50
IC50 strictly less than 0.08 µM = class 1. Otherwise class 0.

Sample answers from the record:
Is it true that IC50 reported for "Cc1cc(N2C(=O)OC(C)(C)[C@@H]2c2ccccc2)ccc1C(=O)Nc1ccnc2cccnc12" is less than 0.08 µM?
class 0

Strictly below 0.08 µM in IC50? "CC1(C)OC(=O)N([C@H]2CC[C@H](n3c(=O)[nH]c4cnc(Cl)cc43)CC2)[C@H]1c1ccccc1"
class 1

Lab note: confirm whether the reported IC50 for this molecule is below 0.08 µM, equality not counting. molecule: "CC1(C)OC(=O)N(c2ccc(N3C(=O)Cc4ccccc43)cc2)[C@H]1c1ccccc1"
class 0

Further cases:
# TODO verify IC50 < 0.08 µM strictly for this molecule: CC1(C)OC(=O)N([C@@H]2CC=C(c3cc(-c4ncccn4)c[nH]c3=O)CC2)[C@H]1c1ccccc1 (single isomer, unassigned)
class 1

Decide: IC50 of "CC1(C)OC(=O)N(c2ccc(-c3cc(-c4ncccn4)ncc3F)cc2)[C@H]1c1ccccc1" strictly below 0.08 µM?
class 0

Consider "CC1(C)OC(=O)N(c2ccc(-c3cc(-c4nccc(C#N)n4)c[nH]c3=O)cc2)[C@H]1c1ccccc1" . Does its IC50 lie strictly below 0.08 µM?
class 1

Is IC50 of "CC1(C)OC(=O)N([C@H]2CC[C@H](NC(=O)c3ccncn3)CC2)[C@H]1c1ccccc1" strictly below 0.08 µM?
class 0

Is the reported IC50 for "CC1(C)OC(=O)N(c2ccn3c(Nc4ccnc5cccnc45)nnc3c2)[C@H]1c1ccccc1" strictly below 0.08 µM?
class 0

Is it true that IC50 reported for "CC1(C)OC(=O)N(c2ccc(-c3cnc(N)c(-c4ncccn4)c3)cc2)[C@H]1c1ccccc1" is less than 0.08 µM?
class 1

Is it true that IC50 reported for "CC1(C)OC(=O)N(c2ccc(-c3ccc[nH]c3=O)cc2)[C@H]1c1ccccc1" is less than 0.08 µM?
class 0

Determine if "CC1(C)OC(=O)N([C@H]2CC[C@@H](c3c[nH]c(=O)c(-c4ncccn4)c3)CC2)[C@H]1c1ccccc1" shows IC50 strictly lower than 0.08 µM.
class 0

Is IC50 strictly under 0.08 µM for the entry "CC1(C)OC(=O)N([C@H]2CC[C@H](NC(=O)c3ccc[nH]3)CC2)[C@H]1c1ccccc1" ?
class 0

Dear colleague, could you confirm whether IC50 of "CC1(C)OC(=O)N([C@H]2CC[C@H](NC(=O)c3cscn3)CC2)[C@H]1c1ccccc1" falls below 0.08 µM? Thanks.
class 0

Field: below-cutoff. Rule: recorded IC50 strictly less than 0.08 µM. Subject: "CC1(C)OC(=O)N(c2ccc(-c3cc4ccncc4[nH]c3=O)cc2)[C@H]1c1ccccc1"
class 1

Please state whether IC50 is below 0.08 µM for "CC1(C)OC(=O)N([C@H]2CC[C@H](N3C(=O)C(F)(F)c4ccccc43)CC2)[C@H]1c1ccccc1"
class 0

====

# System: total β-catenin in SW480 colorectal cells
# EXPERIMENT_SUMMARY: cells
# Assay type: cell-based
# DETAILS: Homo sapiens, SW480, read-out: SW480-Total β-Catenin IC50 IP
Property: pIC50; scope: individual compounds
pIC50 is defined as minus the log10 of a concentration measured in mol/L.

Give total β-catenin in SW480 colorectal cells pIC50 for the following compound: CC1(C)OC(=O)N([C@H]2CC[C@H](c3cnc(N)c(-c4ncccn4)c3)CC2)[C@H]1c1ccccc1 [Example 74]
7.04

Param request: pIC50 | system total β-catenin in SW480 colorectal cells | item CC1(C)OC(=O)N([C@H]2CC[C@H](c3cnc(N)c(-c4ncccn4)c3)CC2)[C@H]1c1ccccc1 (racemic) [Example 73]
7.02

Others:
Send back total β-catenin in SW480 colorectal cells pIC50 of "CC1(C)OC(=O)N(c2ccc(-c3cc(-c4ccccn4)cnn3)cc2)[C@H]1c1ccccc1" only.
5.02

====

# Tested on: total β-catenin in SW480 colorectal cells
# EXPERIMENT_SUMMARY: cells
# Assay type: cell-based
# DETAILS: Homo sapiens; SW480 cells, 40 to 48 hours, top concentration 10 μM; read-out: SW480-Total β-Catenin IC50 IP
MEASUREMENT_KIND: pIC50
Remember, pIC50 is on a log scale: it is -log10 of the molar concentration.

Dear colleague, please send me the reported pIC50 for "CC1(C)OC(=O)N(c2ccc(-c3cnc(N)c(-c4ccc5nncn5n4)c3)cc2)[C@H]1c1ccccc1" when you can.
6.67

Supply measured pIC50 of "COc1cccc([C@H]2N(c3ccc(C(=O)Nc4cccc5cccnc45)cc3)C(=O)OC2(C)C)c1" in your reply.
5.18

Kindly indicate its recorded pIC50. Item: "CC1(C)OC(=O)N(c2ccc(-c3cc(-c4ccccn4)cnc3F)cc2)[C@H]1c1ccccc1"
5.75

Provide one value: measured pIC50 of CC1(C)OC(=O)N([C@H]2CC=C(c3cc(-c4ncccn4)c[nH]c3=O)CC2)[C@H]1c1ccccc1 (single isomer, unassigned)
6.23

---
Return pIC50 for the following compound: CC1(C)OC(=O)N(c2ccc(C(=O)Nc3cccc4cccnc34)cc2)C1c1ccccc1F (stereo not shown)
5.31

Identify measured pIC50 associated with C[C@]1(c2ccccc2)CN([C@H]2CC[C@H](n3c(=O)[nH]c4cnccc43)CC2)C(=O)O1 (single isomer, unassigned)
5.44

====

# System: 8×TCF promoter-driven Firefly luciferase (Wnt reporter) in HEK-293 cells
# EXPERIMENT_SUMMARY: 2H9-STF assay, Wnt ligand activated HEK-293 assay in WT APC cellular context
# Type: cell-based
# DETAILS: Homo sapiens, HEK293, read-out: 2H9-Wnt3a-STF-FF/RL * 100 IC50
pIC50 values for the compounds below.
Please note pIC50 is a logarithmic value: minus log10 of concentration in mol/L. Answer with that number alone.

Give the reported pIC50 for this compound. "CC1(C)OC(=O)N(c2ccc(-c3cc(-c4ncccn4)c[nH]c3=O)cc2)[C@H]1c1ccccc1"
6.54

Others:
Return value of pIC50 for input "CC1(C)OC(=O)N([C@H]2CC[C@H](NC(=O)c3cccc4cccnc34)CC2)[C@H]1c1ccccc1" , no commentary.
7.26

====

# Test system: total β-catenin in SW480 colorectal cells
# EXPERIMENT_SUMMARY: cells
# Type: cell-based
# DETAILS: Homo sapiens, SW480, read-out: SW480-Total β-Catenin IC50 IP
Consider the following compounds and their measured log10 IC50 readings.
Answers are given as log10 of IC50 in nM.

Given the compound "CC1(C)OC(=O)N(c2ccc(-c3cnc(N)c(-c4nccc(C(=N)N)n4)c3)cc2)[C@H]1c1ccccc1" , write its reported log10 IC50.
2.79

Dear colleague, please send me the reported log10 IC50 for CC1(C)OC(=O)N([C@H]2CC[C@H](c3cc(-c4ncccn4)c[nH]c3=O)CC2)C1c1ccccc1 (mixture of isomers) when you can.
2.84

For the compound CC1(C)OC(=O)N([C@H]2CC[C@@H](c3cnc(N)c(-c4ncccn4)c3)CC2)[C@H]1c1ccccc1 (racemic) , give its measured log10 IC50 value.
3.82

Tell us which log10 IC50 value is on record for "CC1(C)OC(=O)N(c2ccc(C(=O)Nc3cccc4cccnc34)cc2)[C@H]1c1ccncc1"
2.88

State, in one line, measured log10 IC50 of "CC1(C)OC(=O)N(c2ccc(-c3cc(-c4ncccn4)c[nH]c3=O)cc2)[C@H]1c1ccccc1"
2.88

New cases:
Look up and report measured log10 IC50 for this entry: "CC1(C)OC(=O)N([C@H]2CC[C@H](c3cnc(N)c(-c4ncccn4)c3)CC2)[C@@H]1c1ccccc1"
3.20

Quote log10 IC50 reported for "CC1(C)OC(=O)N([C@H]2CC[C@H](c3cc(-c4ncccn4)c[nH]c3=O)CC2)[C@@H]1c1ccccc1" please.
3.13

Read off the recorded log10 IC50 for "CC1(C)OC(=O)N([C@H]2CC[C@H](c3cc(-c4ncccn4)c[nH]c3=O)CC2)[C@H]1c1ccccc1"
2.88
